# maps each entry to its inhibition at 10 µM
Target: fms (Homo sapiens, UniProt P07333)
Sequence (P07333 582-910 limits assumed): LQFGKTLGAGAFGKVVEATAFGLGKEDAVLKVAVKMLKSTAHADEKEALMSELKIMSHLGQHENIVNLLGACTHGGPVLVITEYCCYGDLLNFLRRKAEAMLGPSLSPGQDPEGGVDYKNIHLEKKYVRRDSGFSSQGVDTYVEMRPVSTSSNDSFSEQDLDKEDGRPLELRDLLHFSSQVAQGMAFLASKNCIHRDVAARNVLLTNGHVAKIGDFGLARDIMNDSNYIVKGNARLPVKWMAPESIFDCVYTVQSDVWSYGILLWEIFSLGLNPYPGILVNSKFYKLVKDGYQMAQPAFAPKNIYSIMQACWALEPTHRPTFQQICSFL
Test: fms kinase assay (ELISA or Alphascreen)
Assay type: biochemical
Settings: read-out: fms inhibition of enzyme activity

O=C(Nc1ccccc1)c1cncc(-c2ccc(F)cc2)c1 | < 50%
Cc1cc(F)ccc1NC(=O)c1cncc(-c2ccc3c(c2)OCO3)c1 | < 50%
O=C(NCc1ccco1)c1cncc(-c2cccnc2)c1 | < 50%
C[C@@H](NC(=O)c1cncc(-c2ccncc2)c1)c1ccccc1 | < 50%
Cc1ccccc1NC(=O)c1cncc(-c2cc(C)c(O)c(C)c2)c1 | ≥ 50%

Q: What does the record list as inhibition at 10 µM for Cc1ccc(F)cc1NC(=O)c1cncc(-c2ccc(O)cc2)c1 ?
A: < 50%

Q: Okay, and COc1cc(-c2cncc(C(=O)Nc3cc(C)ccc3C)c2)ccc1O ?
A: ≥ 50%

Q: Okay, and O=C(NCc1ccc(F)cc1)c1cncc(-c2ccc(F)cc2)c1 ?
A: < 50%

This collection of values is drawn from patent US8030336B2.
